# target of assay: LasR (Pseudomonas aeruginosa, UniProt P25084)
# Construct: expressed in transfected cells; host or cells: E. coli JLD271
# Sequence (P25084 whole entry): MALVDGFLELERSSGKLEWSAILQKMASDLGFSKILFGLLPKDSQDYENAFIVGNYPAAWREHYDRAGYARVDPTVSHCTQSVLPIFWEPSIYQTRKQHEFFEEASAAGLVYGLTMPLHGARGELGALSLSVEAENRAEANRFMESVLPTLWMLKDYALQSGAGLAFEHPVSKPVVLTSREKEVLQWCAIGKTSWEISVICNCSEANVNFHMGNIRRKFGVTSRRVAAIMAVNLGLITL
# test method notes: E. coli reporter gene primary agonism assay, LasR
# Assay type: cell-based
# applied conditions: compounds at 100 mm; E. coli reporter strain JLD271/pJN105L/pSC11; 100 mm OdDHL = 100%; error ±10%
endpoint: Activation [%] LasR
State the result as a value with its unit after it.

These recorded examples may help you get a feel for the data.
Cc1cccc(CC(=O)N[C@H]2CCOC2=O)c1 [E1]; 21%
O=C(Cc1cccc(Br)c1)N[C@H]1CCOC1=O; 44%
O=C(Cc1ccccc1I)N[C@H]1CCOC1=O; −4%
O=C(Cc1cccc(F)c1)N[C@H]1CCOC1=O; −2%
O=C(Cc1ccccc1F)N[C@H]1CCOC1=O; −4%

Now consider a different molecule.
**Q:** Look up Activation [%] LasR for this molecule: "O=C(CCc1ccc(Cl)cc1)N[C@H]1CCOC1=O"
**A:** 53%

====

# target of assay: RhlR (Pseudomonas aeruginosa, UniProt P54292)
# Construct: expressed in transfected cells; host or cells: E. coli JLD271
# Sequence (P54292 whole entry): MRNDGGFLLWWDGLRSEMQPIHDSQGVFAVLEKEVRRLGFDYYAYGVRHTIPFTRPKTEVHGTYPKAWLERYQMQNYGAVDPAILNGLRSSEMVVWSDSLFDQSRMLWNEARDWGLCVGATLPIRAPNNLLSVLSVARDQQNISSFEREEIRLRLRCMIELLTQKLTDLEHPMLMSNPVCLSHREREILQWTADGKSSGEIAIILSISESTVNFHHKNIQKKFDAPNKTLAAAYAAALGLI
# test method notes: E. coli reporter gene antagonism assay, RhlR
# Assay type: cell-based
# applied conditions: compounds at 100 mm in the presence of 10 mm BHL; untreated culture = 100%; error ±10%; selected data reproduced from Welsh et al. 2015
# key: entry, value: Inhibition [%] RhlR
Record the value in %, omitting the unit from your answer.

Some compounds with recorded Inhibition [%] RhlR:
O=C(CCCC1CCCCC1)N[C@H]1CCOC1=O; 69
O=C(Cc1ccc2ccccc2c1)N[C@H]1CCOC1=O; 77
O=C(COc1ccc(C(F)(F)F)cc1)N[C@H]1CCOC1=O; 64

**Q:** Param item = "O=C(COc1ccc(Br)cc1)N[C@H]1CCOC1=O" ; retrieve measured Inhibition [%] RhlR.
**A:** 66

**Q:** # lookup: Inhibition [%] RhlR of "O=C(COc1ccc(OC(F)(F)F)cc1)N[C@H]1CCOC1=O"
**A:** 61

**Q:** Look at this compound and give its reported Inhibition [%] RhlR. "O=C(Cc1ccc([N+](=O)[O-])cc1)N[C@H]1CCOC1=O"
**A:** 60

**Q:** Need Inhibition [%] RhlR, item "O=C(Cc1ccc(Br)cc1)N[C@@H]1CCOC1=O"
**A:** 66

====

# target of assay: RhlR (Pseudomonas aeruginosa, UniProt P54292)
# Construct: expressed in transfected cells; host or cells: E. coli JLD271
# test method notes: E. coli reporter gene antagonism assay, RhlR
# Assay type: cell-based
# applied conditions: compounds at 100 mm in the presence of 10 mm BHL; untreated culture = 100%; error ±10%; selected data reproduced from Welsh et al. 2015
Catalogue of Inhibition [%] RhlR values
Your answer should be a plain number; it is taken to be in %.

Known Inhibition [%] RhlR results, listed for orientation:
O=C(Cc1ccc(C(F)(F)F)cc1)N[C@H]1CCOC1=O; 86
COc1ccc(OCC(=O)N[C@H]2CCOC2=O)cc1; 66
Cc1ccc(OCC(=O)N[C@H]2CCOC2=O)cc1; 75
O=C(Cc1c(F)c(F)c(F)c(F)c1F)N[C@H]1CCOC1=O; 66

# context switch: different molecule, same Inhibition [%] RhlR
**Q:** Could you tell me which Inhibition [%] RhlR is on file for "CSc1ccc(CC(=O)N[C@H]2CCOC2=O)cc1" ?
**A:** 78
